- Target: COVID-19 (nCoV-2019, SARS-CoV2) Mpro (Severe acute respiratory syndrome coronavirus 2, UniProt P0DTD1)
- Assay comment: COVID-19 (nCoV-2019, SARS-CoV2) Mpro enzymatic assay
- Type: biochemical
- Condition details: 25 nM Mpro, 25 μM substrate; read-out: COVID-19 Mpro IC50
pIC50: −log10 of the molar value.
# key: entry, value: pIC50
Readout name: pIC50

Compound | Measurement
CC(C)(C#N)C(=O)N(c1ccc(S(F)(F)(F)(F)F)cc1)C(C(=O)NC1CCC(F)(F)CC1)c1cncc(F)c1 (single isomer, unassigned) [Compound 1316 Isomer 2] | < 4.52
CN1CCN(C#N)C(C(=O)N(c2ccc(C(C)(C)C)cc2)C(C(=O)NC2CCCCC2)c2cccnc2)C1 (single isomer, unassigned) [Compound 217 Isomer 2] | > 5.70
CO[C@@H]1C[C@H](C(=O)N(c2ccc(S(F)(F)(F)(F)F)cc2)C(C(=O)NCCc2cc(F)cc(F)c2)c2cccnc2)N(C#N)C1 (single isomer, unassigned) [1196 Isomer 1] | 5.00 to 5.70
CC(C)(C)c1ccc(N(C(=O)[C@H]2CCCN2C#N)C(C(=O)N2CC(O)C2)c2cccnc2)cc1 (stereo partly drawn) | 5.00 to 5.70
CC(C)(C)c1ccc(N(C(=O)c2cnc[nH]2)C(C(=O)NC2CCCCC2)c2ccc(C(F)(F)F)nc2Cl)cc1 (stereo not drawn) [Compound 102a] | < 4.52
C[C@@]1(O)C[C@H](C(=O)N(c2ccc(S(F)(F)(F)(F)F)cc2)C(C(=O)NC2CCC(F)(F)CC2)c2cccnc2F)N(C#N)C1 (single isomer, unassigned) [1158 Isomer 1] | > 5.70
CC1(C)CN(C#N)[C@@H](C(=O)N(c2ccc(S(F)(F)(F)(F)F)cc2)C(C(=O)NC2CCC(F)(F)CC2)c2cncc(F)c2)CO1 (single isomer, unassigned) [1086b Isomer 2] | 5.00 to 5.70
CC(C)(C)c1ccc(N(C(=O)[C@H]2CCCN2C#N)C(C(=O)NCCN2CCOCC2)c2cccnc2)cc1 (single isomer, unassigned) [391 Isomer 2] | 4.52 to 5.00
N#CN1CC(=O)NCC1C(=O)N(c1ccc(S(F)(F)(F)(F)F)cc1)C(C(=O)NC1CCC(F)(F)CC1)c1cncc(F)c1 (single isomer, unassigned) [Compound 1160 Isomer 4] | 5.00 to 5.70
N#CN1C[C@H](O)C[C@@H]1C(=O)N(c1ccc(C2CC2)cc1)C(C(=O)NC1CCCCC1)c1cccnc1 (single isomer, unassigned) [723 Isomer 2] | 4.52 to 5.00
CC(C(=O)NC1CCC(F)(F)CC1)(c1cccnc1)N(C(=O)[C@H]1C[C@@](C)(O)CN1C#N)c1ccc(S(F)(F)(F)(F)F)cc1 (single isomer, unassigned) [Compound 1077 Isomer 1] | 4.52 to 5.00
C[C@H](NC(=O)C(c1cncc(F)c1)N(C(=O)[C@H]1C[C@@](C)(O)CN1C#N)c1ccc(-c2ccccc2)cc1)c1ccccc1 (single isomer, unassigned) [1345 Isomer 2] | 5.00 to 5.70
N#CN1C[C@H](O)C[C@@H]1C(=O)N(c1ccc(S(F)(F)(F)(F)F)cc1)C(C(=O)NC1CCCCC1)c1cccnc1 (single isomer, unassigned) [Compound 791 Isomer 2] | 5.00 to 5.70
CC(C)(C)c1ccc(N(C(=O)c2cnc[nH]2)C(C(=O)NC2CCCCC2)c2cncnc2)cc1 (stereo not drawn) | 5.00 to 5.70
CC(C)(C)c1ccc(N(C(=O)[C@H]2CCCN2C#N)C(C(=O)N2CCC(N)CC2)c2cccnc2)cc1 (stereo partly drawn) | < 4.52
CO[C@@H]1C[C@H](C(=O)N(c2ccc(S(F)(F)(F)(F)F)cc2)C(C(=O)N(CCO)C2CCC(F)(F)CC2)c2cccnc2)N(C(=O)OCc2ccccc2)C1 (stereo partly drawn) | < 4.52
COc1ccc(NC(=O)C(c2cccnc2)N(C(=O)[C@H]2C[C@@H](OC)CN2C#N)c2ccc(S(F)(F)(F)(F)F)cc2)cn1 (single isomer, unassigned) [1180 Isomer 2] | > 5.70
CO[C@@H]1C[C@H](C(=O)N(c2ccc(S(F)(F)(F)(F)F)cc2)C(C(=O)NCCc2cccc(F)c2)c2cccnc2)N(C#N)C1 (single isomer, unassigned) [1197 Isomer 2] | 5.00 to 5.70
N#CN1CC(=O)NCC1C(=O)N(c1ccc(S(F)(F)(F)(F)F)cc1)C(C(=O)NC1CCC(F)(F)CC1)c1cncc(F)c1 (single isomer, unassigned) [Compound 1160 Isomer 3] | 5.00 to 5.70
N#CN1C[C@H](O)C[C@@H]1C(=O)N(c1ccc(C2CC2)c(F)c1)C(C(=O)NC1CCCCC1)c1cccnc1 (single isomer, unassigned) [Compound 767 Isomer 2] | 5.00 to 5.70
N#CC1(C(=O)N(c2ccc(S(F)(F)(F)(F)F)cc2)C(C(=O)NC2CCC(F)(F)CC2)c2cncc(F)c2)CC1 (single isomer, unassigned) [1289 Isomer 2] | < 4.52
